# assay.protocol: Tmax in dog at 1 mg/kg, po
# Format: ADME, organism-based, Canis lupus familiaris
# condition.set: in vivo
readout.type: Tmax (h)

>>> print(df.to_string())
                           molecular_string  readout_type  measured
0  O=C(O)C1CN(Cc2ccc(-c3noc(-c4onc(-c5ccccc5)c4C(F)(F)F)n3)cc2)C1          Tmax       8.9

---

# assay.protocol: Clearance in dog at 1 mg/kg, iv
# Format: ADME, organism-based, Canis lupus familiaris
# condition.set: in vivo
readout.type: clearance (mL/min/kg)

In [3]: df
Out[3]:
                           molecular_string  readout_type       unit  measured
0  O=C(O)C1CN(Cc2ccc(-c3noc(-c4onc(-c5ccccc5)c4C(F)(F)F)n3)cc2)C1     clearance  mL/min/kg       1.6

---

# assay.protocol: Tmax in rat at 5 mg/kg, po
# Format: ADME, organism-based
# condition.set: in vivo
readout.type: Tmax (h)

>>> print(df.to_string())
                           molecular_string  unit  measured
0  O=C(O)C1CN(Cc2ccc(-c3noc(-c4onc(-c5ccccc5)c4C(F)(F)F)n3)cc2)C1     h       3.3

---

# assay.protocol: Permeability of the compound at pH 7.4 by PAMPA
# Type: ADME
# condition.set: read-out: permeability
readout.type: Papp (×10⁻⁶ cm/s)

>>> df
                           molecular_string  readout_type  measured
0  O=C(O)C1CN(Cc2ccc(-c3noc(-c4onc(-c5ccccc5)c4C(F)(F)F)n3)cc2)C1          Papp       103

---

# system.under.test: Cytochrome P450 2B6 (Homo sapiens, UniProt P20813)
# Sequence (P20813 whole entry): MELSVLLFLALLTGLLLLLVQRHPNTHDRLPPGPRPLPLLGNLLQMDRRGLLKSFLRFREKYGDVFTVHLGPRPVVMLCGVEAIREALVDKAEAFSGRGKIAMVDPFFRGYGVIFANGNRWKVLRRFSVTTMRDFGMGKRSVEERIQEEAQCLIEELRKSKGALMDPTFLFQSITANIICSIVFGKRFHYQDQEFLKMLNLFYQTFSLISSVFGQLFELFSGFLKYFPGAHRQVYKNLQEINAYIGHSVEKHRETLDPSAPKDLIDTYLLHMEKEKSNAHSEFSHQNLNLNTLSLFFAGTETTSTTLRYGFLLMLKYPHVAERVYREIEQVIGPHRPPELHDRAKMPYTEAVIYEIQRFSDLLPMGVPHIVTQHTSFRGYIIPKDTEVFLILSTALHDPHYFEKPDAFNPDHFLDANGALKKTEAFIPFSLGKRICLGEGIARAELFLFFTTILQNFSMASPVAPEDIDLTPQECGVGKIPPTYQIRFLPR
pIC50: −log10 of the molar value.
readout.type: pIC50

In [3]: df
Out[3]:
                           molecular_string  readout_type  measured
0  O=C(O)C1CN(Cc2ccc(-c3noc(-c4onc(-c5ccccc5)c4C(F)(F)F)n3)cc2)C1         pIC50    < 4.40

---

# assay.protocol: Mean residence time in dog at 1 mg/kg, iv
# Format: ADME, organism-based, Canis lupus familiaris
# condition.set: in vivo
readout.type: MRT

In [3]: df
Out[3]:
                           molecular_string  measured
0  O=C(O)C1CN(Cc2ccc(-c3noc(-c4onc(-c5ccccc5)c4C(F)(F)F)n3)cc2)C1     8.9 h

---

# system.under.test: Cytochrome P450 2C9 (Homo sapiens, UniProt P11712)
# Sequence (P11712 whole entry): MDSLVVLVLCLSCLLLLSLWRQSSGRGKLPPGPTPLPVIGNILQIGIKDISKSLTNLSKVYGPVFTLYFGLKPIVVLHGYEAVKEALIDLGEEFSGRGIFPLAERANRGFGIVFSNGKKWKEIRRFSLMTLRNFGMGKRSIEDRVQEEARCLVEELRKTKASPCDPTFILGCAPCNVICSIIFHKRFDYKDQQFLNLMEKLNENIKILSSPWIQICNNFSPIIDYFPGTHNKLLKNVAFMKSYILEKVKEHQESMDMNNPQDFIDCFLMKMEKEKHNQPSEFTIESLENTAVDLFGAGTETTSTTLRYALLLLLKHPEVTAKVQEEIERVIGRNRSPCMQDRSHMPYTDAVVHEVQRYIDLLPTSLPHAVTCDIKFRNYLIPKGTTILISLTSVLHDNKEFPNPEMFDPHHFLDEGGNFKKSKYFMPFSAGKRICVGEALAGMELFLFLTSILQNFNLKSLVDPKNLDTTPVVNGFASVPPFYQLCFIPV
readout.type: IC50

>>> print(df.to_string())
                           molecular_string  measured
0  O=C(O)C1CN(Cc2ccc(-c3noc(-c4onc(-c5ccccc5)c4C(F)(F)F)n3)cc2)C1   > 40 µM

---

# assay.protocol: Plasma concentration in Lewis rat at 1 mg/kg, po measured at 24 hrs
# Assay type: ADME, organism-based
readout.type: log10(concentration at 24 h) (log10 of the value in nM)

In [3]: df
Out[3]:
                           molecular_string  measured
0  CC(C)Cc1onc(-c2nc(-c3ccc(CN4CC(C(=O)O)C4)cc3)no2)c1C(F)(F)F      2.45
1  CCCc1c(-c2nc(-c3ccc(CN4CC(C(=O)O)C4)cc3)no2)noc1CC(C)C      1.61
2  CCc1c(-c2nc(-c3ccc(CN4CC(C(=O)O)C4)cc3)no2)noc1-c1ccccc1      1.46
3  CC(C)(C)c1c(-c2nc(-c3ccc(CN4CC(C(=O)O)C4)cc3)no2)noc1-c1ccccc1      1.74
4  CCCCc1c(-c2nc(-c3ccc(CN4CC(C(=O)O)C4)cc3)no2)noc1-c1ccccc1      0.70
5  O=C(O)C1CN(Cc2ccc(-c3noc(-c4noc(-c5ccccc5)c4C(F)(F)F)n3)cc2)C1      2.26
6  O=C(O)C1CN(Cc2ccc(-c3noc(-c4onc(-c5ccccc5)c4C(F)(F)F)n3)cc2)C1      2.85
